- systemName: IDH1^R132H homodimer enzyme (Homo sapiens, UniProt O75874, R132H)
- Sequence (O75874 whole entry R132H): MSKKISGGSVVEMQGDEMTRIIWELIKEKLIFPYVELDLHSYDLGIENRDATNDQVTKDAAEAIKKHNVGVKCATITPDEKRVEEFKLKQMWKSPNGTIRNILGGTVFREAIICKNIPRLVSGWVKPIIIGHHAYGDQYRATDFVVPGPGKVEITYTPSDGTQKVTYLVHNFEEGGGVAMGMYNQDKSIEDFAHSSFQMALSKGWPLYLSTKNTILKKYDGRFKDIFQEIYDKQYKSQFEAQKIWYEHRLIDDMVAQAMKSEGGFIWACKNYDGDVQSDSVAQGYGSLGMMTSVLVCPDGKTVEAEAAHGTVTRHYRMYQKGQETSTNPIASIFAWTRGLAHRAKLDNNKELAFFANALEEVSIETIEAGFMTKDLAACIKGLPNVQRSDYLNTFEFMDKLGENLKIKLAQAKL
- assayMethodText: NADPH depletion assay, IDH1 R132H
assayMetric: IC50 (nM)

Completed entries (count: 8):
>  <compound>
C[C@H](Nc1ncc2ccc(=O)n(Cc3ccc(F)cc3)c2n1)c1ccc(Cl)cc1

>  <assayMetric>
IC50

>  <reportedResult>
1480

$$$$
>  <compound>
C[C@H](Nc1ncc2ccc(=O)n(CC(C(F)(F)F)C(F)(F)F)c2n1)c1ccc(CN2CCC(F)(F)CC2)cc1

>  <assayMetric>
IC50

>  <reportedResult>
459

$$$$
>  <compound>
C=CC(=O)N1CCN([C@@H](CC)c2ccc([C@H](C)Nc3cc4c(ccc(=O)n4CC)cn3)cc2)CC1

>  <assayMetric>
IC50

>  <reportedResult>
4

$$$$
>  <compound>
C[C@H](Nc1ncc2ccc(=O)n(CC(C)(C)C)c2n1)c1ccc(CN2CCOCC2)cc1F

>  <assayMetric>
IC50

>  <reportedResult>
226

$$$$
>  <compound>
CCOC(=O)C(C)n1c(=O)ccc2cnc(N[C@@H](C)c3ccc(CN4CCCC(F)(F)C4)cc3)nc21 (stereo partly shown)

>  <assayMetric>
IC50

>  <reportedResult>
290

$$$$
>  <compound>
CCCn1c(=O)ccc2cnc(N[C@@H](C)c3ccc(CN4CCC(F)(F)CC4)cc3)nc21

>  <assayMetric>
IC50

>  <reportedResult>
575

$$$$
>  <compound>
C=CC(=O)N1CCN([C@H](CC2CC2)c2ccc(C3(Nc4ncc5ccc(=O)n(C(C)C)c5n4)CC3)cc2)CC1 (single isomer, unassigned)

>  <assayMetric>
IC50

>  <reportedResult>
2

$$$$
>  <compound>
C[C@H](Nc1ncc2ccc(=O)n(CC(C)(C)C#N)c2n1)c1ccc2ccccc2c1

>  <assayMetric>
IC50

>  <reportedResult>
197

$$$$

(A) C[C@H](Nc1ncc2ccc(=O)n(CC(C)(C)C(N)=O)c2n1)c1ccc2ccccc2c1
(B) C[C@H](Nc1ncc2ccc(=O)n(Cc3ccc(F)cc3F)c2n1)c1ccc(Cl)cc1
Higher IC50 between A and B ? Please indicate the selected item by its label.
B

(a) C[C@H](Nc1ncc2ccc(=O)n(Cc3c(F)cccc3F)c2n1)c1ccc(CO)cc1
(b) C[C@H](Nc1ncc2ccc(=O)n(CC(C)(C)C)c2n1)c1ccc(-c2ccnc(F)c2)cc1
Higher IC50 between a and b ? Please indicate the selected item by its label.
a

(I) CC(C)[C@H](C)n1c(=O)ccc2cnc(N[C@@H](C)c3ccc(N4CCOCC4)cc3)nc21
(II) C=CC(=O)N1CCC(C#N)(c2ccc([C@H](C)Nc3ncc4ccc(=O)n(C(C)C)c4n3)cc2)CC1
For I and II , which recorded IC50 is lower? Please indicate the selected item by its label.
II
(II: 272 nM, I: 575 nM)

(I) C[C@H](Nc1ncc2cc(F)c(=O)n(CC(C)(C)C)c2n1)c1ccccc1
(II) C[C@H](Nc1ncc2ccc(=O)n(CC(C)(C)C)c2n1)c1ccc2ccccc2c1
Higher IC50 between I and II ? Please indicate the selected item by its label.
I

* * *

- systemName: IDH1^R132C (Homo sapiens, UniProt O75874, R132C)
- Sequence (O75874 whole entry R132C): as the sequence (O75874 whole entry R132H) above, with H132C counted along it
- assayMethodText: NADPH depletion assay, IDH1 R132C
pIC50: −log10 of the molar value.
assayMetric: pIC50

>  <compound>
C=CC(=O)N1CCN(C(CC)c2ccc([C@H](C)Nc3ncc4ccc(=O)n(Cc5c(F)cccc5F)c4n3)cc2)CC1 (stereo partly shown)

>  <pIC50>
9.00

$$$$

(a) CC(C)[C@H](C)n1c(=O)ccc2cnc(N[C@@H](C)c3cc4cc(Cl)ccc4[nH]c3=O)nc21
(b) COC(=O)c1ccc([C@H](C)Nc2ncc3ccc(=O)n(Cc4ccccc4)c3n2)cc1
For a and b , which recorded pIC50 is lower? Please indicate the selected item by its label.
b

(a) COC(=O)c1ccc([C@H](C)Nc2ncc3ccc(=O)n(CC(C)C)c3n2)cc1
(b) CC(C)[C@H](C)n1c(=O)ccc2cnc(N[C@@H](C)c3ccc(OC4CCNCC4)cc3)nc21
For a and b , which recorded pIC50 is lower? Please indicate the selected item by its label.
a
(a: 6.35, b: 6.83)

(a) C[C@H](Nc1ncc2ccc(=O)n(CC(C)(C)C)c2n1)c1ccc(CO)c(F)c1
(b) CC(C)[C@H](C)n1c(=O)ccc2cnc(N[C@@H](C)c3ccc(-c4ccccc4C#N)cc3)nc21
(c) C[C@H](Nc1ncc2ccc(=O)n(Cc3ccc(F)cc3C(F)(F)F)c2n1)c1ccc(CN2CCC(F)(F)CC2)cc1
(d) CC(C)Cn1c(=O)ccc2cnc(N[C@@H](C)c3ccc(CN4CCC(F)(F)CC4)cc3)nc21 [cpd 95]
rank_up(items): orders items by reported pIC50 in ascending numerical order. Return the labels ranked in the requested order, please.
c, a, d, b

(1) CC(C)[C@H](C)n1c(=O)ccc2cnc(N[C@@H](C)c3ccc(CN4CCN(C)C(=O)C4)cc3)nc21
(2) C[C@H](Nc1ncc2ccc(=O)n(Cc3c(F)cccc3F)c2n1)c1ccc(C(=O)NC2CCN(C)CC2)cc1
For 1 and 2 , which recorded pIC50 is lower? Please indicate the selected item by its label.
2
(2: 5.44, 1: 6.92)

(a) CCn1c(=O)ccc2cnc(N[C@@H](C)c3ccc(C(=O)N4CCN(C(=O)OC(C)(C)C)CC4)cc3)nc21
(b) CC[C@@H](C)n1c(=O)ccc2cnc(N[C@@H](C)c3ccc(CN4CCCC(F)(F)C4)cc3)nc21
For a and b , which recorded pIC50 is lower? Please indicate the selected item by its label.
a

(A) CC(Nc1ncc2ccc(=O)n(CCF)c2n1)c1ccc(CN2CCC(F)(F)CC2)cc1 (stereo not shown)
(B) C[C@H](Nc1ncc2ccc(=O)n(Cc3ccccc3F)c2n1)c1ccc(Cl)cc1
(C) C=CC(=O)N1CCN(Cc2ccc([C@H](C)Nc3ncc4ccc(=O)n(CC)c4n3)cc2)C(C(C)C)C1 (stereo in doubt)
(D) CC(C)C(=O)N1CCC(Oc2ccc([C@H](C)Nc3ncc4ccc(=O)n([C@@H](C)C(C)C)c4n3)cc2)CC1
rank_up(items): orders items by reported pIC50 in ascending numerical order. Return the labels ranked in the requested order, please.
A, B, C, D

(1) C[C@H](Nc1ncc2ccc(=O)n(CC(C)(C)C)c2n1)c1ccc(CN2CCCC2)cc1
(2) C[C@H](Nc1ncc2ccc(=O)n(CC(C)(C)CO)c2n1)c1ccc(CN2CCC(F)(F)CC2)cc1
(3) C=CC(=O)N1CCC(NC(=O)c2ccc([C@H](C)Nc3ncc4ccc(=O)n(C(C)C)c4n3)cc2F)CC1
(4) C[C@H](Nc1ncc2ccc(=O)n(Cc3ccccc3)c2n1)c1ccc(Cl)cc1
rank_up(items): orders items by reported pIC50 in ascending numerical order. Return the labels ranked in the requested order, please.
1, 4, 3, 2
(1: 5.85, 4: 6.34, 3: 6.60, 2: 7.19)

(P) CC(C)[C@H](C)n1c(=O)ccc2cnc(N[C@@H](C)c3ccc(N4CCNCC4)cc3)nc21
(Q) CCCn1c(=O)ccc2cnc(N[C@@H](C)c3ccc(CN4CCC(F)(F)CC4)cc3)nc21
For P and Q , which recorded pIC50 is lower? Please indicate the selected item by its label.
P
(P: 5.72, Q: 6.57)

Cited source: patent US12018023B2
